Assay: AUC in F344 rat at 3 mg/kg, po
Format: ADME, organism-based
Parameters: dose 3 mg/kg, route oral
Details: plasma
Experimental readout: AUC (ng·h/mL)
One number for each entry, in ng·h/mL.

What does the data say about its AUC? Entry: CCOC(CC(=O)O)c1ccc(OCc2ccccc2C)cc1 (stereo unspecified) 5300

----------
Target: Free fatty acid receptor 1 (Homo sapiens, UniProt O14842)
Sequence (O14842 whole entry): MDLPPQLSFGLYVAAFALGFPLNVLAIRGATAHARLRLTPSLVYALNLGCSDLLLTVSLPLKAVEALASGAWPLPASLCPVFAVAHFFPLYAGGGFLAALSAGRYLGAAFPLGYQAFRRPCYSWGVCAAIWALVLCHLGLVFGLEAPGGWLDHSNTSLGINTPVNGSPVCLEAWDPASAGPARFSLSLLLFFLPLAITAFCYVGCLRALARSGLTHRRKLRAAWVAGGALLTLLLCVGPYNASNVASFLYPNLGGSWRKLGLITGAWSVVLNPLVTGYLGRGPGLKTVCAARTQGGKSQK
Test: Agonist activity at human GPR40 expressed in CHO cells by calcium flux assay
Experimental readout: EC50
Answer as a quantity: numeral, then unit.

Compound	Target entity	EC50
CCOC(CC(=O)O)c1ccc(OCc2cccc(-c3c(C)cccc3C)c2)nc1 (configuration not stated)	Free fatty acid receptor 1 (Homo sapiens, UniProt O14842)	14 nM
Cc1cccc(C)c1-c1cccc(COc2ccc(CC(F)C(=O)O)cn2)c1 (configuration not stated)	Free fatty acid receptor 1 (Homo sapiens, UniProt O14842)	8.6 nM
Cc1cc(OCc2cccc(-c3c(C)cccc3C)c2)ncc1CCC(=O)O	Free fatty acid receptor 1 (Homo sapiens, UniProt O14842)	9.3 nM
COC(Cc1ccc(OCc2cccc(-c3c(C)cccc3C)c2)nc1)C(=O)O (configuration not stated)	Free fatty acid receptor 1 (Homo sapiens, UniProt O14842)	120 nM
Cc1cccc(C)c1-c1cccc(COc2ccc(CCC(=O)O)s2)c1	Free fatty acid receptor 1 (Homo sapiens, UniProt O14842)	52 nM
Cc1cccc(C)c1-c1cccc(COc2ccc(CCC(=O)O)cc2)c1	Free fatty acid receptor 1 (Homo sapiens, UniProt O14842)	6.7 nM
O=C(O)CCc1ccc(NCc2cccc(Oc3ccccc3)c2)cc1	Free fatty acid receptor 1 (Homo sapiens, UniProt O14842)	13 nM
CCOC(CC(=O)O)c1ccc(OCc2cccc(C)c2)cc1 (configuration not stated)	Free fatty acid receptor 1 (Homo sapiens, UniProt O14842)	35 nM
CCOC(CC(=O)O)c1ccc(OCc2ccccc2C)cc1 (configuration not stated)	Free fatty acid receptor 1 (Homo sapiens, UniProt O14842)	20 nM
Cc1cccc(C)c1-c1cccc(COc2ccc(C(F)CC(=O)O)cn2)c1 (configuration not stated)	Free fatty acid receptor 1 (Homo sapiens, UniProt O14842)	18 nM

# batch: return EC50 for each of the 2 compounds below
1. Cc1cccc(C)c1-c1cccc(COc2ccc(CCC(=O)O)nn2)c1
2. Cc1cccc(C)c1-c1cccc(COc2ccc(CCC(=O)O)cn2)c1

1: 420 nM; 2: 3.5 nM

----------
Organism: Homo sapiens
Experiment: Inhibition of mitochondrial respiratory chain complex 1 (unknown origin) at 100 uM
Please respond with reported inhibition for every item in the list.
Give bare numbers, in %.

Some compounds with known inhibition results, for comparison:
Compound	Reported result
Cc1cccc(C)c1-c1cccc(COc2ccc(C(F)CC(=O)O)cn2)c1 (configuration not stated)	91
Cc1cccc(C)c1-c1cccc(COc2ccc(CC(F)C(=O)O)cn2)c1 (configuration not stated)	58

# batch: return inhibition for each of the 5 compounds below
1. Cc1cccc(C)c1-c1cccc(COc2ccc(CCC(=O)O)cc2)c1
2. CCOC(CC(=O)O)c1ccc(OCc2ccccc2C)cc1 (configuration not stated)
3. CCOC(CC(=O)O)c1ccc(OCc2ccccc2)nc1 (configuration not stated)
4. CCOC(CC(=O)O)c1ccc(OCc2cccc(-c3c(C)cccc3C)c2)nc1 (configuration not stated)
5. Cc1cccc(C)c1-c1cccc(COc2ccc(C(C)CC(=O)O)cn2)c1 (configuration not stated)

1: 58; 2: 6; 3: 1; 4: 66; 5: 39
